target: Apoptosis regulator Bcl-2 (Homo sapiens); test: inhibitors of Bim-Bcl-2 binding, confirmation, biochemical, dose response, multiplexed HTS hits (AID 2075); details: inactive by the depositor's call
attributeMeasured: EC50 (µM)
Could you give me the number in µM? Just the number is fine.

Take a look at these entries with their results.
{"smi": "COc1ccccc1NC1=C(NC(C)=O)C(=O)c2ccccc2C1=O", "unitAbbrev": "µM", "assayResult": 12.1}
{"smi": "Cc1ccc(-c2nc3c(c(=O)[nH]c(=O)n3Cc3ccccc3)n2C)o1", "unitAbbrev": "µM", "assayResult": 48.2}
{"smi": "Clc1nc(NCc2cccnc2)nc(N2CCOCC2)n1", "unitAbbrev": "µM", "assayResult": 18.9}
{"smi": "CCN(CC)C(=O)COC(=O)c1cc(-c2ccco2)nc2ccccc12", "unitAbbrev": "µM", "assayResult": 29.5}
{"smi": "COc1ccc(CCNC(=O)c2ccc3nc(-c4ccco4)c(-c4ccco4)nc3c2)cc1OC", "unitAbbrev": "µM", "assayResult": 25.8}

q: Lab note: need EC50 for O=C(NCc1ccccc1)c1ccc2nc(-c3ccco3)c(-c3ccco3)nc2c1 on Apoptosis regulator Bcl-2 (Homo sapiens), anyone have it?
a: 20.6

* * *

pEC50 for assorted compounds
target: Apoptosis regulator Bcl-2 (Homo sapiens, UniProt P10415); test: inhibitors of Bim-Bcl-2 binding, confirmation, biochemical, dose response, multiplexed HTS hits (AID 2075)
Sequence (P10415 whole entry): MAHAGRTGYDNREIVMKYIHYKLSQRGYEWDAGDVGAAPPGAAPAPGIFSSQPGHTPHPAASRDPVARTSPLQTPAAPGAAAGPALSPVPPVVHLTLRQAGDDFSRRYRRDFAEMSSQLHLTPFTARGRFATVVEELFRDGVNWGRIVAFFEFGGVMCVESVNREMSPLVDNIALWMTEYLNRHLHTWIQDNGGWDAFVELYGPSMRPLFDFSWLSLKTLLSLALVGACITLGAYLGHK
Lab note — pEC50 values are minus log10 of concentrations in M.

// solved cases for pEC50 follow
{"compound": "CC(=O)OCCCNc1cc(Sc2nc3ccccc3s2)c2nonc2c1[N+](=O)[O-]", "attributeMeasured": "pEC50", "assayResult": 6.08}
{"compound": "Cc1ccc(C=NNC(=O)CSc2nnc(-c3ccc(Cl)cc3)n2-c2ccccc2)o1", "attributeMeasured": "pEC50", "assayResult": 4.91}
{"compound": "CN(CCO)c1cc(Sc2nc3ccccc3s2)c2nonc2c1[N+](=O)[O-]", "attributeMeasured": "pEC50", "assayResult": 5.20}
{"compound": "Cc1cc2nn(-c3cccc4ccccc34)nc2cc1N", "attributeMeasured": "pEC50", "assayResult": 5.72}
{"compound": "O=C1NC(=O)C2(Cc3c(nc4ccccn4c3=O)N3CCCCCC32)C(=O)N1Cc1ccccc1 (stereo unspecified)", "attributeMeasured": "pEC50", "assayResult": 5.65}

q: Give its pEC50 value. Item: O=[N+]([O-])c1c(NCCCO)cc(Sc2nc3ccccc3s2)c2nonc12
a: 5.72
